Please go through the items and note down their composite z-score.
- TARGET: Alpha-bungarotoxin (Bungarus multicinctus) (UniProt P60615)
- Sequence (P60615 whole entry, looked up): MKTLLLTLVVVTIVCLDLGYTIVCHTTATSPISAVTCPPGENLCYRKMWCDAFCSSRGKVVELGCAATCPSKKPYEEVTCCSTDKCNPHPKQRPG
- EXPERIMENT_NOTES: alpha-bungarotoxin binders on microarray, profiling panel, artefact control for SMM control protein annotation, biochemical, small-molecule microarray, Alexa647 label, 635/667 nm fluorescence (AID 1117)
- REPORTED_CONDITIONS: alpha-BTX-A647 binding fluorescence, higher = more signal
I'd appreciate a reply containing only the number, no unit.

Measured on Alpha-bungarotoxin (Bungarus multicinctus) (UniProt P60615), `CN(C)CCCC[C@@H]1NC(=O)[C@@H]2C[C@H](C(=O)NCCCCCNC(=O)CS)[C@H](c3ccc(O)cc3)N2C1=O` has a documented composite z-score of 1.65

Alpha-bungarotoxin (Bungarus multicinctus) (UniProt P60615) assay, molecule `O=C1O[C@H](c2ccccc2)[C@H](c2ccccc2)N2[C@H]1[C@@H](C(=O)Nc1nc3ccccc3s1)[C@]1(C(=O)Nc3ccc(C#CC4=CCCCC4)cc31)[C@H]2c1ccccc1OCCO` , recorded composite z-score = 1.04

composite z-score on Alpha-bungarotoxin (Bungarus multicinctus) (UniProt P60615) for `CCOC(=O)C1=C[C@@H](c2ccccc2)N(S(=O)(=O)c2ccc(C)cc2)[C@H]1c1ccc(F)cc1` is 1.27

The molecule `CCOC(=O)[C@H]1C/C=C/C[C@H](C(=O)OCC)C(=O)O[C@H]2[C@@H](OC)O[C@H](CO)[C@@H](OC(=O)Nc3ccc(Br)cc3)[C@@H]2OC1=O` , tested on Alpha-bungarotoxin (Bungarus multicinctus) (UniProt P60615), showed composite z-score of 0.465

Query `CO[C@@H]1COC(=O)[C@@H]2CCCN2C(=O)CC=C[C@@H](C)[C@H](OC)COC(=O)[C@@H]2CCCN2C(=O)CC=C[C@H]1C` on Alpha-bungarotoxin (Bungarus multicinctus) (UniProt P60615); composite z-score returned: -1.09

# composite z-score measured on Alpha-bungarotoxin (Bungarus multicinctus) (UniProt P60615) for item `O=C1c2ccccc2[C@](Cc2ccccc2I)(C(=O)NCc2ccccc2)[C@H](c2ccc(CO)cc2)N1Cc1ccccc1C(F)(F)F` = -0.442

Entry `CC(C)[Si](OCC[C@H]1O[C@]2(C(=O)N(Cc3ccccc3)c3ccccc32)[C@@H](C)[C@@H]1[Si](C)(C)O)(C(C)C)C(C)C` , Alpha-bungarotoxin (Bungarus multicinctus) (UniProt P60615) data, composite z-score value: -0.513

Entry `C=CCN1C(=O)[C@@]2(O[C@@H](CCn3cc([C@H](O)c4ccccc4)nn3)[C@H]([Si](C)(C)c3ccc(OC)cc3)[C@H]2C)c2cc(N3CCOC3=O)ccc21` , Alpha-bungarotoxin (Bungarus multicinctus) (UniProt P60615) data, composite z-score value: -0.577

Query `COc1cc(Cc2cc3c(c(CCc4ccccc4)n2)[Si](C(C)C)(C(C)C)OC3)cc(OC)c1OC` on Alpha-bungarotoxin (Bungarus multicinctus) (UniProt P60615); composite z-score returned: -0.044

Sample O=C1OCCC/C=C\[C@H]2OC34C=CCN(CCN5CCOCC5)C(=O)[C@H]3N(CCCCCO)C(=O)[C@@H]4C12 (some centres undefined) , system: Alpha-bungarotoxin (Bungarus multicinctus) (UniProt P60615). Its composite z-score is -0.918

composite z-score of `O=C(NCC(F)(F)F)[C@@H]1c2ccccc2C(=O)N(Cc2ccccc2Cl)[C@H]1c1ccc(CO)cc1` , assay on Alpha-bungarotoxin (Bungarus multicinctus) (UniProt P60615), is -1.18

For `C=CCN1C(=O)[C@@]2(Cc3ccccc3)N=C(c3ccc(OCCCO)cc3)O[C@H]2c2ccccc21` on Alpha-bungarotoxin (Bungarus multicinctus) (UniProt P60615), measured composite z-score was 1.66

Sample `C=CC[C@]1(C(=O)OC)N=C(c2ccc(OCCCO)cc2)O[C@H]1c1ccccc1CN=[N+]=[N-]` , system: Alpha-bungarotoxin (Bungarus multicinctus) (UniProt P60615). Its composite z-score is 1.14

The molecule `CO[C@H]1COC(=O)[C@@H](OCc2ccccc2)C=C[C@H](C)[C@@H](OC)COC(=O)[C@H](OCc2ccccc2)C=C[C@@H]1C` , tested on Alpha-bungarotoxin (Bungarus multicinctus) (UniProt P60615), showed composite z-score of -0.155
